# Protocol notes: Pharmacokinetic measurements of H3B-6527 capsules in patients (trial NCT02834780), plasma LC-MS/MS
# Format: in vivo, human
# Study conditions: human, plasma, oral, 1400 mg, 1400 mg QD, fasted, Day 8; Table 6, actual times after QC; read-out: Cmax, geometric mean (CV%)
Readout type: Cmax (ng/mL)
Give a bare numeral; the unit ng/mL is implied.

Cmax recorded for this compound, C=CC(=O)Nc1cc(N2CCN(CC)CC2)ccc1Nc1cc(N(C)C(=O)Nc2c(Cl)c(OC)cc(OC)c2Cl)ncn1 [H3B-6527] , is 362

* * *

# Protocol notes: Pharmacokinetic measurements of H3B-6527 capsules in patients (trial NCT02834780), plasma LC-MS/MS
# Type: in vivo, human
# Study conditions: human, plasma, oral, 300 mg, 300 mg QD, fasted, Day 1; Table 5, nominal times; read-out: Tmax, median (min-max)
Readout type: Tmax (h)
Give a bare numeral; the unit h is implied.

Tmax recorded for this molecule, C=CC(=O)Nc1cc(N2CCN(CC)CC2)ccc1Nc1cc(N(C)C(=O)Nc2c(Cl)c(OC)cc(OC)c2Cl)ncn1 , is 2

* * *

# Protocol notes: Pharmacokinetic measurements of H3B-6527 capsules in patients (trial NCT02834780), plasma LC-MS/MS
# Format: in vivo, human
# Study conditions: human, plasma, oral, 1000 mg, 1000 mg QD, fasted, Day 8; Table 6, actual times after QC; read-out: Half-life, geometric mean (CV%) (converted)
Readout type: half-life (h)
Give a bare numeral; the unit h is implied.

half-life recorded for this molecule, C=CC(=O)Nc1cc(N2CCN(CC)CC2)ccc1Nc1cc(N(C)C(=O)Nc2c(Cl)c(OC)cc(OC)c2Cl)ncn1 , is 4.84

* * *

# Protocol notes: Pharmacokinetic measurements of H3B-6527 capsules in patients (trial NCT02834780), plasma LC-MS/MS
# Format: in vivo, human
# Study conditions: human, plasma, oral, 600 mg, 600 mg QD, fasted, Day 8; Table 6, actual times after QC; read-out: AUC, geometric mean (CV%)
Readout type: AUC (ng·h/mL)
Give a bare numeral; the unit ng·h/mL is implied.

AUC recorded for this compound, C=CC(=O)Nc1cc(N2CCN(CC)CC2)ccc1Nc1cc(N(C)C(=O)Nc2c(Cl)c(OC)cc(OC)c2Cl)ncn1 , is 636

* * *

# Protocol notes: Pharmacokinetic measurements of H3B-6527 capsules in patients (trial NCT02834780), plasma LC-MS/MS
# Assay type: in vivo, human
# Study conditions: human, plasma, oral, 500 mg, 500 mg BID, fed, Day 8; Table 5, nominal times; read-out: Half-life, geometric mean (CV%) (converted)
Readout type: half-life (h)
Give a bare numeral; the unit h is implied.

half-life recorded for this compound, C=CC(=O)Nc1cc(N2CCN(CC)CC2)ccc1Nc1cc(N(C)C(=O)Nc2c(Cl)c(OC)cc(OC)c2Cl)ncn1 , is 2.3

* * *

# Protocol notes: Pharmacokinetic measurements of H3B-6527 capsules in patients (trial NCT02834780), plasma LC-MS/MS
# Type: in vivo, human
# Study conditions: human, plasma, oral, 600 mg, 600 mg QD, fed, Day 8; Table 6, actual times after QC; read-out: Half-life, geometric mean (CV%) (converted)
Readout type: half-life (h)
Give a bare numeral; the unit h is implied.

half-life recorded for this compound, C=CC(=O)Nc1cc(N2CCN(CC)CC2)ccc1Nc1cc(N(C)C(=O)Nc2c(Cl)c(OC)cc(OC)c2Cl)ncn1 , is 5.88

* * *

# Protocol notes: Pharmacokinetic measurements of H3B-6527 capsules in patients (trial NCT02834780), plasma LC-MS/MS
# Format: in vivo, human
# Study conditions: human, plasma, oral, 500 mg, 500 mg BID, fed, Day 8; Table 5, nominal times; read-out: Cmax, geometric mean (CV%)
Readout type: Cmax (µg/mL)
Give a bare numeral; the unit µg/mL is implied.

Cmax recorded for this molecule, C=CC(=O)Nc1cc(N2CCN(CC)CC2)ccc1Nc1cc(N(C)C(=O)Nc2c(Cl)c(OC)cc(OC)c2Cl)ncn1 [H3B-6527] , is 0.262

* * *

# Protocol notes: Pharmacokinetic measurements of H3B-6527 capsules in patients (trial NCT02834780), plasma LC-MS/MS
# Type: in vivo, human
# Study conditions: human, plasma, oral, 700 mg, 700 mg BID, fed, Day 8; Table 5, nominal times; read-out: Cmax, geometric mean (CV%)
Readout type: Cmax (ng/mL)
Give a bare numeral; the unit ng/mL is implied.

Cmax recorded for this compound, C=CC(=O)Nc1cc(N2CCN(CC)CC2)ccc1Nc1cc(N(C)C(=O)Nc2c(Cl)c(OC)cc(OC)c2Cl)ncn1 [H3B-6527] , is 167

* * *

# Protocol notes: Pharmacokinetic measurements of H3B-6527 capsules in patients (trial NCT02834780), plasma LC-MS/MS
# Format: in vivo, human
# Study conditions: human, plasma, oral, 700 mg, 700 mg BID, fed, Day 1; Table 5, nominal times; read-out: Cmax, geometric mean (CV%)
Readout type: Cmax (ng/mL)
Give a bare numeral; the unit ng/mL is implied.

Cmax recorded for this molecule, C=CC(=O)Nc1cc(N2CCN(CC)CC2)ccc1Nc1cc(N(C)C(=O)Nc2c(Cl)c(OC)cc(OC)c2Cl)ncn1 [H3B-6527] , is 163

* * *

# Protocol notes: Pharmacokinetic measurements of H3B-6527 capsules in patients (trial NCT02834780), plasma LC-MS/MS
# Type: in vivo, human
# Study conditions: human, plasma, oral, 500 mg, 500 mg BID, fed, Day 1; Table 6, actual times after QC; read-out: Tmax, median (min-max)
Readout type: Tmax (h)
Give a bare numeral; the unit h is implied.

Tmax recorded for this compound, C=CC(=O)Nc1cc(N2CCN(CC)CC2)ccc1Nc1cc(N(C)C(=O)Nc2c(Cl)c(OC)cc(OC)c2Cl)ncn1 , is 4.02

* * *

# Protocol notes: Pharmacokinetic measurements of H3B-6527 capsules in patients (trial NCT02834780), plasma LC-MS/MS
# Type: in vivo, human
# Study conditions: 700 mg BID, fed, Day 8; Table 5, nominal times
Readout type: AUC, geometric mean (CV%) (ng·h/mL)
Give a bare numeral; the unit ng·h/mL is implied.

AUC, geometric mean (CV%) recorded for this compound, C=CC(=O)Nc1cc(N2CCN(CC)CC2)ccc1Nc1cc(N(C)C(=O)Nc2c(Cl)c(OC)cc(OC)c2Cl)ncn1 , is 640

* * *

# Protocol notes: Pharmacokinetic measurements of H3B-6527 capsules in patients (trial NCT02834780), plasma LC-MS/MS
# Format: in vivo, human
# Study conditions: human, plasma, oral, 600 mg, 600 mg QD, fasted, Day 1; Table 5, nominal times; read-out: Tmax, median (min-max)
Readout type: Tmax
Enter the number, and then the unit.

Tmax recorded for this compound, C=CC(=O)Nc1cc(N2CCN(CC)CC2)ccc1Nc1cc(N(C)C(=O)Nc2c(Cl)c(OC)cc(OC)c2Cl)ncn1 , is 1 h

* * *

# Protocol notes: Pharmacokinetic measurements of H3B-6527 capsules in patients (trial NCT02834780), plasma LC-MS/MS
# Format: in vivo, human
# Study conditions: human, plasma, oral, 700 mg, 700 mg BID, fed, Day 8; Table 5, nominal times; read-out: Tmax, median (min-max)
Readout type: Tmax (h)
Give a bare numeral; the unit h is implied.

Tmax recorded for this compound, C=CC(=O)Nc1cc(N2CCN(CC)CC2)ccc1Nc1cc(N(C)C(=O)Nc2c(Cl)c(OC)cc(OC)c2Cl)ncn1 , is 4.12

* * *

# Protocol notes: Pharmacokinetic measurements of H3B-6527 capsules in patients (trial NCT02834780), plasma LC-MS/MS
# Type: in vivo, human
# Study conditions: 500 mg BID, fed, Day 1; Table 5, nominal times
Readout type: AUC, geometric mean (CV%) (ng·h/mL)
Give a bare numeral; the unit ng·h/mL is implied.

AUC, geometric mean (CV%) recorded for this compound, C=CC(=O)Nc1cc(N2CCN(CC)CC2)ccc1Nc1cc(N(C)C(=O)Nc2c(Cl)c(OC)cc(OC)c2Cl)ncn1 , is 769

* * *

# Protocol notes: Pharmacokinetic measurements of H3B-6527 capsules in patients (trial NCT02834780), plasma LC-MS/MS
# Format: in vivo, human
# Study conditions: human, plasma, oral, 1400 mg, 1400 mg QD, fasted, Day 1; Table 5, nominal times; read-out: Tmax, median (min-max)
Readout type: Tmax

Tmax recorded for this molecule, C=CC(=O)Nc1cc(N2CCN(CC)CC2)ccc1Nc1cc(N(C)C(=O)Nc2c(Cl)c(OC)cc(OC)c2Cl)ncn1 , is 1 h

* * *

# Protocol notes: Pharmacokinetic measurements of H3B-6527 capsules in patients (trial NCT02834780), plasma LC-MS/MS
# Assay type: in vivo, human
# Study conditions: 1400 mg QD, fed, Day 8; Table 5, nominal times
Readout type: AUC, geometric mean (CV%)
Enter the number, and then the unit.

AUC, geometric mean (CV%) recorded for this molecule, C=CC(=O)Nc1cc(N2CCN(CC)CC2)ccc1Nc1cc(N(C)C(=O)Nc2c(Cl)c(OC)cc(OC)c2Cl)ncn1 , is 5450 ng·h/mL
